FYI, the data here is from ChEMBL document CHEMBL1201862.

Tested on: TK-10
assay.overview: NCI tumour cell line growth inhibition, 48 h
Active and inactive are the calls of the source. No stated cut-off is given here; in the data, active = GI50 up to about 1.1 µM and inactive = higher.
Please go through the items and note down their GI50.

Would you kindly share the measured GI50 for O=c1c2c3c(sc2nc2n1N=CN(c1ccc(Cl)cc1)C2)CCCC3 ? > 100 µM (inactive)

Would you kindly share the measured GI50 for COCC(O)CN1C(N)=NC(O)C1O (stereo unspecified) ? > 100 µM (inactive)

Would you kindly share the measured GI50 for CC1(C)C=Cc2c(cc(O)c3c(=O)c4cc(Cl)ccc4[nH]c23)O1 ? 4.5 µM (inactive)

Would you kindly share the measured GI50 for Cc1ccc(O)c(Cc2nc3ccccc3nc2-c2cccc(Cl)c2)c1 ? 88.9 µM (inactive)

Would you kindly share the measured GI50 for CC(C)(C)[Si](C)(C)OCC1CCC(n2cnc3c(N)ncnc32)O1 (stereo unspecified) ? > 100 µM (inactive)

Would you kindly share the measured GI50 for CCCCC(C(=O)CCC(=O)Nc1ccc(Cl)cc1)C(=O)C(C)C (stereo unspecified) ? > 100 µM (inactive)

Would you kindly share the measured GI50 for Cc1ccc(S(=O)(=O)OC2C(C3COC(C)(C)O3)OC3OC(C)(C)OC32)cc1 (stereo unspecified) ? > 100 µM (inactive)

Would you kindly share the measured GI50 for CCC(=O)N1C(=O)OCC1C(C)C (stereo unspecified) ? > 100 µM (inactive)

Would you kindly share the measured GI50 for CC[N+]1(C)CCC(O)(/C=C/c2ccc(OC)cc2)C(C(=O)/C=C/c2ccc(OC)cc2)C1 (stereo unspecified) ? 2.96 µM (inactive)

Would you kindly share the measured GI50 for COc1cc(/C=C\c2ccncc2)cc(OC)c1OC ? > 100 µM (inactive)

Would you kindly share the measured GI50 for COc1cc2c3c(c1O)C1(C=CC(=O)C=C1)CC3N(C)CC2 (stereo unspecified) ? 21.6 µM (inactive)

====

System: K562
assay.overview: NCI tumour cell line growth inhibition, 48 h
Activity calls are given as the source filed them. Cut-off read from the data, not from the text of the source: active = GI50 up to about 1.1 µM and inactive = higher.
Please go through the items and note down their GI50.

Would you kindly share the measured GI50 for CN(CCO)CCC1COc2ccccc2O1 (stereo not given) ? > 10 µM (inactive)

Would you kindly share the measured GI50 for O=C(c1ccccc1)c1ccc2nc3n(c2c1)C(c1c(F)cccc1F)SC3 (stereo not given) ? 3.31 µM (inactive)

Would you kindly share the measured GI50 for CC1=C2C(=C[C@H]3[C@]4(C)CCCC(C)(C)[C@H]4CC[C@]34O[C@H]24)OC1=O ? > 100 µM (inactive)

Would you kindly share the measured GI50 for CCOC(=O)NC(=O)c1cn(C2CCCCC2)c(=O)[nH]c1=O ? 4.9 µM (inactive)

Would you kindly share the measured GI50 for Cc1ccc(C(=O)c2[nH]c(Nc3ccc(Cl)cc3)c(C(=S)Nc3ccccc3)c2N)cc1 ? 7.38 µM (inactive)

Would you kindly share the measured GI50 for N#CC(C#N)=C1NN=C(Cl)c2ccccc21 ? > 100 µM (inactive)

Would you kindly share the measured GI50 for COc1cc(C(C)c2cc3c(cc2OCCO)OCO3)cc(OC)c1OC (stereo not given) ? 0.486 µM (active)

Would you kindly share the measured GI50 for COC(=O)C1CSC(c2csc(CCN)n2)=N1 (stereo not given) ? > 100 µM (inactive)

Would you kindly share the measured GI50 for COc1cc([C@@H]2c3cc4c(cc3[C@@H](NC(=O)c3cccc(F)c3)C3COC(=O)[C@@H]32)OCO4)cc(OC)c1O (stereo not given in full) ? 1.61 µM (inactive)

Would you kindly share the measured GI50 for CC1(C)CCCC2OC2CCC(C)(C)C1=O (stereo not given) ? > 100 µM (inactive)
